biological target: 5-lipoxygenase (Cavia porcellus); construct: A-23187-stimulated guinea pig polymorphonuclear leukocytes; endogenous in cells; assay: Inhibition of 5-HETE and LTB4 synthesis in A-23187-stimulated guinea pig polymorphonuclear leukocytes; details: read-out: IC50, inhibition of the formation of 5-HETE and leukotriene B4 (LTB4)
Sequence (A0A286X958 1-674): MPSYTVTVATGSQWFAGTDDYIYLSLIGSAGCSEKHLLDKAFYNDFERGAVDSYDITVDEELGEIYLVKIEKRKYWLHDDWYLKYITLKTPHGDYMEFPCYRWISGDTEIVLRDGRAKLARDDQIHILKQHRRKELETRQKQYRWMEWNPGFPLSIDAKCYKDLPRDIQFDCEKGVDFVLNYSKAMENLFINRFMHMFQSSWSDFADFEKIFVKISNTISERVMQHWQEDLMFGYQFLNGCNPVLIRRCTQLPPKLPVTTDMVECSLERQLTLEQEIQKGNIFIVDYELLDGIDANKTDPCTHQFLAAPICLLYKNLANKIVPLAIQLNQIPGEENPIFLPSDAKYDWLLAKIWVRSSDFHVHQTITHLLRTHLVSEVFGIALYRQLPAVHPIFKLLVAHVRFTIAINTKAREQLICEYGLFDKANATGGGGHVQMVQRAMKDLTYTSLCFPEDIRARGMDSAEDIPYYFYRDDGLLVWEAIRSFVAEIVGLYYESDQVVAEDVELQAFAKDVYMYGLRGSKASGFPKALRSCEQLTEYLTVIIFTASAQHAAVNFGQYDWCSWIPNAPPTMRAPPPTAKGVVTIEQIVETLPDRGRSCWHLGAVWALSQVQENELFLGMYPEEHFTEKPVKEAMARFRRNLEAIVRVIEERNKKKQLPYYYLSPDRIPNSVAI
Excerpt: […]
pIC50: −log10 of the molar value.
measurement.name: pIC50

What value of pIC50 has been recorded for this entry: `NC(=O)N(O)CCOc1ccc2c(c1)CCN(CCCc1ccccc1)C2=O`
~6.30
